Data origin, for the record: PubChem BioAssay (EPA / NIEHS)

Read-out: Monocyte Chemoattractant Protein-1 (MCP1), CCL2 (gene 6347)
methodNotes: BSK_hDFCGF_MCP1: BioMAP Diversity Plus: hDFCGF Assay for Monocyte Chemoattractant Protein-1 (MCP1) Biomarker Activity (AID 2284285)
condition: primary human foreskin fibroblasts
Activity calls are given as the source filed them. Rule for the calls: active = hit-call score of the fitted dose curve at least 0.9, where 1 is the maximum; inactive = score below 0.9.
Parameter call: string, one of class 1 for active, class 0 for inactive

As a guide, the following entries are already answered.
compound | labelValue
O=C(O)C(F)(F)C(F)(F)F | class 0
FC(F)(F)C(F)(F)C(F)(F)C(F)(F)C(F)(F)CCI | class 0
O=C(CC(=O)C(F)(F)C(F)(F)F)C(F)(F)F | class 0
C=CC(F)(F)C(F)(F)C(F)(F)C(F)(F)C(F)(F)C(F)(F)C(F)(F)C(F)(F)C=C | class 0
C=CC(F)(F)C(F)(F)C(F)(F)C(F)(F)C(F)(F)C(F)(F)C(F)(F)C(F)(F)F | class 0
FC1CC(F)(F)C(F)(F)C1(F)F (stereo not given) | class 0

Qu. Any idea what this test logged for OCC(F)(F)C(F)(F)C(F)(F)F ?
Ans. class 0

Qu. In this assay, the call recorded for O=C(O)C(F)(F)C(F)(F)C(F)(F)F was what?
Ans. class 0

Qu. So what was the verdict on NC(=O)C(F)(F)C(F)(F)C(F)(F)C(F)(F)F in this test?
Ans. class 0

Qu. // return assay outcome for FC(F)(F)C(F)(F)C(F)(F)C(F)(F)CCI
Ans. class 0

Qu. Just curious, what result did FC(F)(Br)C(F)(F)C(F)(F)C(F)(F)C(F)(F)C(F)(F)Br get here?
Ans. class 0

Qu. Assay outcome for O=C(O)C(F)(F)C(F)(F)C(F)(F)C(F)(F)C(F)(F)C(F)(F)C(F)(F)C(F)(F)C(F)(F)C(F)(F)C(F)(F)C(F)(F)C(F)(F)F : what was it?
Ans. class 0

Qu. Recorded test call requested for C=C(C)C(=O)OCC(F)(F)C(F)(F)C(F)(F)C(F)(F)C(F)(F)C(F)(F)C(F)(F)F
Ans. class 0

Qu. What outcome does the record of this test show for O=C(O)C(F)(F)C(F)(F)C(F)F ?
Ans. class 0
